Assay summary: NCI Yeast Anticancer Drug Screen. Data for the cln2 rad14 strain (AID 165)
Conditions: S. cerevisiae cln2 rad14 strain, at 5.0 µM (retest, dose inferred, filed as 0.5)
This is part of a sample that, as a whole, favours compounds with a hit. Of some 79,000 tested, about 15% had one in any assay. Activity calls are given as the source filed them. Cut-off read from the data, not from the text of the source: active = growth inhibition above about 70%; inactive = the rest.
Allowed answers: TRUE for active, FALSE for inactive

Problem: Kindly provide the recorded test outcome for the following compound: COc1cc(C2OC(=O)c3ccccc3S2)ccc1O (stereo not drawn)
Solution: FALSE

Problem: Kindly provide the recorded test outcome for the following compound: "CC(=O)Oc1c(Br)cc(Br)cc1Br"
Solution: FALSE

Problem: Kindly provide the recorded test outcome for the following compound: "C/C(=N\Nc1ccccn1)c1ccccn1"
Solution: FALSE

Problem: Kindly provide the recorded test outcome for the following compound: C=C1CC2(CCCC3(CC(=C)C(=O)O3)C2(C)C)OC1=O (stereo not drawn)
Solution: FALSE

Problem: Kindly provide the recorded test outcome for the following compound: COc1cccc2c1C(=O)c1c(O)c3c(c(O)c1C2=O)C[C@@](O)(C(C)=O)C[C@@H]3OC1CC(N(CCO)Cc2ccccc2)C(O)C(C)O1 (stereo partly drawn)
Solution: TRUE

Problem: Kindly provide the recorded test outcome for the following compound: "O=C1CCS(=O)(=O)c2ccccc21"
Solution: FALSE

Problem: Kindly provide the recorded test outcome for the following compound: "CCCN(CCC)c1ccc(/C=C/c2ccnc3ccccc23)cc1"
Solution: FALSE

Problem: Kindly provide the recorded test outcome for the following compound: "CC(C)c1cc(C(=O)[O-])c(O)c(C(C)C)c1.CC(C)c1cc(C(=O)[O-])c(O)c(C(C)C)c1.CC(C)c1cc(C(=O)[O-])c(O)c(C(C)C)c1.CC(C)c1cc(C(=O)[O-])c(O)c(C(C)C)c1.CC(C)c1cc(C(=O)[O-])c(O)c(C(C)C)c1.CC(C)c1cc(C(=O)[O-])c(O)c(C(C)C)c1.[Cu+2].[Mn+2].[Mn+2]"
Solution: FALSE

* * *

Assay summary: NCI Yeast Anticancer Drug Screen. Data for the rad50 strain (AID 155)
Conditions: S. cerevisiae rad50 strain growth inhibition; at 50.0 µM
Compounds without any hit were thinned out: in the full panel of roughly 79,000, 15% have a hit. Activity calls are given as the source filed them. Rule as the data show it: active = growth inhibition above about 70%; inactive = the rest.
Allowed answers: active, inactive

Problem: Kindly provide the recorded test outcome for the following compound: CC(C)c1cc(O)c2c(c1O)C1CC3C(C)(C)CCC[C@]23C(=O)O1 (stereo partly drawn)
Solution: active

Problem: Kindly provide the recorded test outcome for the following compound: CC(C)(C)Oc1ccc(CC(NC(=O)OCC2c3ccccc3-c3ccccc32)C(=O)O)cc1 (stereo not drawn)
Solution: active

Problem: Kindly provide the recorded test outcome for the following compound: "CSC(=N)N1N=C2/C(=C/c3ccccc3)CCC[C@H]2[C@H]1c1ccccc1"
Solution: inactive

Problem: Kindly provide the recorded test outcome for the following compound: O=C(OC12CCCCC1CCCC2)c1ccc([N+](=O)[O-])cc1 (stereo not drawn)
Solution: active

Problem: Kindly provide the recorded test outcome for the following compound: Cc1c(N)nc(C2CC(=O)N2CC(N)C(N)=O)nc1C(=O)NC(C(=O)NC(C)C(O)C(C)C(=O)NC(C(=O)NCCc1nc(-c2nc(C(=O)NCCNCC(C)O)cs2)cs1)C(C)O)C(OC1OC(CO)C(O)C(O)C1OC1OC(CO)C(O)C(OC(N)=O)C1O)c1cnc[nH]1 (stereo not drawn)
Solution: active

Problem: Kindly provide the recorded test outcome for the following compound: "O=C1CC(=Nc2ccc([N+](=O)[O-])cc2)NN1c1c(Cl)cc(Cl)cc1Cl"
Solution: active

Problem: Kindly provide the recorded test outcome for the following compound: CN(C)c1ccc2c(c1)N(C)c1ccccc1C2(Cl)c1ccccc1 (stereo not drawn)
Solution: active

Problem: Kindly provide the recorded test outcome for the following compound: "Cc1cnc(Sc2c([N+](=O)[O-])ncn2C)nc1"
Solution: active

Origin of values: PubChem BioAssay (NCI)
